assay remarks: acute toxicity (DL50)
cond: mouse, in vivo, ip; I.P.; mice; mortality recorded 48 hours after administration
Structures can show the parent of a compound that is named as a salt.
LD50 at 48 h values by entry
Write the answer as a number in mg/kg, unit excluded.

Observe how each entry below is paired with its result.
COc1ccc2c(C3CCN(CCCC(=O)c4ccc(F)cc4)CC3)c(C)[nH]c2c1    600
O=C(CCCN1CCC(c2c[nH]c3ccccc23)CC1)c1ccc(F)cc1 [Example 1, hydrochloride]    100
O=C(CCCN1CCC(c2c[nH]c3ccccc23)CC1)c1ccccc1 [Example 7, hydrochloride]    300

Please look at the following compound next.
Q: Name the reported LD50 at 48 h value associated with the compound O=C(CCCN1CCC(c2c[nH]c3ccccc23)CC1)c1ccc(Br)cc1 [Example 6, hydrochloride]
Ans: 300

* * *

ED50 values by entry
Tested on: dogs
assay remarks: anti-emetic activity test vis-a-vis apomorphine hydrochloride
Assay type: in vivo, dog
cond: Canis lupus familiaris, ip; I.P.; dogs; subcutaneous 0.1 mg/kg apomorphine hydrochloride; 50% reduction of vomitings; read-out: DE50 Test of Anti-emetic Activity
Structures can show the parent of a compound that is named as a salt.
Write the answer as a number in mg/kg, unit excluded.

Observe how each entry below is paired with its result.
O=C(CCCN1CCC(c2c[nH]c3ccccc23)CC1)c1ccccc1 [Example 7, hydrochloride]    0.06
COc1ccc2c(C3CCN(CCCC(=O)c4ccc(F)cc4)CC3)c(C)[nH]c2c1    0.0045
O=C(CCCN1CCC(c2c[nH]c3ccccc23)CC1)c1ccc(F)cc1 [Example 1, hydrochloride]    0.02

Q: Record COc1ccc2c(C3CCN(CCCC(=O)c4ccc(F)cc4)CC3)c[nH]c2c1 [Example 3, hydrochloride] : what is its ED50 with dogs?
Ans: 0.01

* * *

assay remarks: acute toxicity (DL50)
cond: mouse, in vivo, ip; I.P.; mice; mortality recorded 48 hours after administration
Where a name gives a salt, the structure may show the parent alone.
LD50 at 48 h values by entry
Write the answer as a number in mg/kg, unit excluded.

Observe how each entry below is paired with its result.
O=C(CCN1CCC(c2c[nH]c3ccccc23)CC1)c1ccc(F)cc1 [Example 8, hydrochloride]    600
Cn1cc(C2CCN(CCCC(=O)c3ccc(F)cc3)CC2)c2ccccc21 [Example 2, hydrochloride]    185
COc1ccc2[nH]cc(C3CCN(CCCC(=O)c4ccc(F)cc4)CC3)c2c1 [Example 4, hydrochloride]    300

Please look at the following compound next.
Q: Name the reported LD50 at 48 h value associated with the compound COc1ccc2c(C3CCN(CCCC(=O)c4ccc(F)cc4)CC3)c[nH]c2c1 [Example 3, hydrochloride]
Ans: 190

* * *

System: mouse
assay remarks: chimney test (neuroleptic activity)
Format: in vivo
cond: ip, 25 min, I.P., 25 minutes after intraperitoneal administration, read-out: DE50 Chimney Test
Where a name gives a salt, the structure may show the parent alone.
observed property: ED50 (mg/kg)
Write the answer as a number in mg/kg, unit excluded.

Observe how each entry below is paired with its result.
COc1ccc2c(C3CCN(CCCC(=O)c4ccc(F)cc4)CC3)c[nH]c2c1 [Example 3, hydrochloride]    0.9
O=C(CCCN1CCC(c2c[nH]c3ccccc23)CC1)c1ccc(F)cc1 [Example 1, hydrochloride]    1.6
O=C(CCCN1CCC(c2c[nH]c3ccccc23)CC1)c1ccccc1 [Example 7, hydrochloride]    4
COc1ccc2[nH]cc(C3CCN(CCCC(=O)c4ccc(F)cc4)CC3)c2c1 [Example 4, hydrochloride]    0.2
COc1ccc2c(C3CCN(CCCC(=O)c4ccc(F)cc4)CC3)c(C)[nH]c2c1 [Example 5]    0.3

Q: Name the reported ED50 value associated with the compound Cn1cc(C2CCN(CCCC(=O)c3ccc(F)cc3)CC2)c2ccccc21 [Example 2, hydrochloride]
Ans: 4.5

Q: Name the reported ED50 value associated with the compound O=C(CCN1CCC(c2c[nH]c3ccccc23)CC1)c1ccc(F)cc1 [Example 8, hydrochloride]
Ans: 2.7
